test system: SNB-75; assay: NCI tumour cell line growth inhibition, 48 h
The source made the active and inactive calls. Rule as the data show it: active = GI50 up to about 1.1 µM and inactive = higher.
Outcome field: choose from active, inactive

Incoming: Field: outcome | Entry: C=CC(C)(O)/C=C/C=C(\C)C(CC1OC1(C)C)OC(=O)/C(C)=C\C (stereo not drawn)
Outgoing: inactive

Incoming: Field: outcome | Entry: Cc1ccc(NC(=O)c2cccc(OP(=O)(Nc3ccc(C)cc3)Nc3ccc(C)cc3)c2)cc1
Outgoing: inactive

Incoming: Field: outcome | Entry: O=C(Nc1cccc2ccccc12)Oc1ccccc1C1CCCCC1
Outgoing: inactive

====

tested on: SF-539; assay: NCI tumour cell line growth inhibition, 48 h
Active and inactive are the calls of the source. Rule as the data show it: active = GI50 up to about 1.1 µM and inactive = higher.
Outcome field: choose from 1 = active, 0 = inactive

Here's what some known entries look like.
COc1ccc2c3c(c(C(=O)c4ccccc4)oc13)CCC2 | 0
CCC1OC2C(CC=C(C)C)=C3OC(C)(O)C(C)(CC)C(OC(=O)c4ccccc4)C3=C3OC(=O)C=C1C32 (stereo not given) | 0
CCN(CC)P1(=S)Oc2ccc3ccccc3c2-c2c(ccc3ccccc23)O1 | 0
CCCCn1c(-c2ccccc2)cs/c1=N\NC(=O)Cn1c(C)nc2ccccc21 | 0

Incoming: Field: outcome | Entry: Cc1cc(NC(=O)NC(=O)c2ccccc2N)ccc1Oc1ncc(Br)cn1
Outgoing: 1

Incoming: Field: outcome | Entry: C/C(CC(=O)N(C(C)C)C(C)C)=N\NC(=O)c1ccncc1
Outgoing: 0

Incoming: Field: outcome | Entry: O=C(O)c1nc2ccccc2nc1Nc1ccc(F)cc1
Outgoing: 0

Incoming: Field: outcome | Entry: COc1cc(C(=O)C/C(CCC(=O)Nc2ccc(Cl)cc2C)=N/NC(=O)C(N)=O)ccc1O
Outgoing: 0

Incoming: Field: outcome | Entry: Cc1nc(NC(C)(CO)CO)nc(N/N=C/c2ccc(Cl)cc2)c1C(=O)Nc1ccc(Cl)cc1
Outgoing: 0

Incoming: Field: outcome | Entry: CC(C)(C)c1cc(C#N)c2c(c1)C(=O)OC2(c1ccccc1)c1ccccc1C#N (stereo not given)
Outgoing: 0

====

test system: A549; experiment: NCI tumour cell line growth inhibition, 48 h
Calls of active or inactive are those of the source. Cut-off read from the data, not from the text of the source: active = GI50 up to about 1.1 µM and inactive = higher.
Outcome field: choose from active, inactive

Here's what some known entries look like.
Nc1ccc2ncc(Nc3ccc(F)cc3)nc2c1 | inactive
CC(=O)O[C@@H]1C[C@]2(C(=O)c3ccccc3)C(=O)C(=O)S[C@]12c1ccccc1 | inactive
CC1=C(C#N)C2C(=C(C)N1)C(N)=Nc1ccccc12 (centres undefined) | inactive
C=C(/C=C/C=C(\C)CCC=C(C)C)[C@@H]1CC[C@]2([C@H](CCCO)/C(=C(/C)C=O)CC[C@]2(C)O)[C@@H]1O | inactive

Incoming: Field: outcome | Entry: O=C1COc2cc(NC(=S)Nc3ccccc3)ccc2N1
Outgoing: inactive

Incoming: Field: outcome | Entry: CCOC(=O)C1=C(O)C(=O)c2ccoc2C1=O
Outgoing: inactive

====

tested on: 786-0; experiment: NCI tumour cell line growth inhibition, 48 h
The source made the active and inactive calls. Cut-off read from the data, not from the text of the source: active = GI50 up to about 1.1 µM and inactive = higher.
Outcome field: choose from active, inactive

COc1cc(Oc2c(O)c(C)c(OC)c(C(C)=O)c2O)c(C(C)=O)c(O)c1C | inactive

Incoming: Field: outcome | Entry: COc1ccc2c(c1)c1nn(CCN3CCCCC3)c3ccc4c(=O)n(CCN(C)C)c(=O)n2c4c13
Outgoing: active

Incoming: Field: outcome | Entry: CC(C)C(/N=C/c1ccccc1O)C(=O)O (stereo not drawn)
Outgoing: inactive

Incoming: Field: outcome | Entry: COc1c(/C=C/C(C)(C)O)cc(C2CC(=O)c3c(O)cc(O)cc3O2)cc1CC=C(C)C (stereo not drawn)
Outgoing: inactive

Incoming: Field: outcome | Entry: CC1=NNC(=O)C1C1CC(c2c[nH]c3ccccc23)=NN(C(N)=O)C1=O (stereo not drawn)
Outgoing: inactive

Incoming: Field: outcome | Entry: N=C(N)N/N=C/c1oc(-c2ccc(S(=O)(=O)O)o2)c(-c2ccc(S(=O)(=O)O)o2)c1[N+](=O)[O-]
Outgoing: inactive

Incoming: Field: outcome | Entry: NC(=O)CCC(NC(=O)Cc1ccccc1)C(=O)O.NC(CCC(=O)NC(=O)Cc1ccccc1)C(=O)O (stereo not drawn)
Outgoing: inactive

Incoming: Field: outcome | Entry: COC(=O)C1=C(C)NC(C)=C(C(=O)OC)C1c1nc2sccn2c1[N+](=O)[O-]
Outgoing: inactive

====

test system: M14; assay: NCI tumour cell line growth inhibition, 48 h
Calls of active or inactive are those of the source. Rule as the data show it: active = GI50 up to about 1.1 µM and inactive = higher.
Outcome field: choose from active, inactive

COC1OC(CO)C(O)C(O)C1Br (configuration not stated) | inactive

Incoming: Field: outcome | Entry: Cc1cccc(CNNC(=O)c2cc[n+]([BH2-]C#N)cc2)c1
Outgoing: inactive

Incoming: Field: outcome | Entry: CCCC[C@H]1C(=O)O[C@H](C)[C@H](NC(=O)c2cccc(NC=O)c2OC)C(=O)O[C@@H](C)[C@@H]1OC(=O)C(C)CC.CCCC[C@H]1C(=O)O[C@H](C)[C@H](NC(=O)c2cccc(NC=O)c2OC)C(=O)O[C@@H](C)[C@@H]1OC(=O)CC(C)C (some centres not stated)
Outgoing: inactive

Incoming: Field: outcome | Entry: O=[N+]([O-])c1cn[n+]([O-])c2ccccc12
Outgoing: inactive

Incoming: Field: outcome | Entry: COc1ccc2cc(NC(=O)Nn3cnnc3)ccc2c1
Outgoing: inactive

Incoming: Field: outcome | Entry: Cc1cccc(C)c1NC(=O)/C=C/c1ccccc1
Outgoing: inactive

Incoming: Field: outcome | Entry: Nc1ccc(S(=O)(=O)Nc2ccc(Nc3c4ccccc4nc4ccccc34)cc2)cc1
Outgoing: active

Incoming: Field: outcome | Entry: CC(C)(C)OC(=O)N(O)CCCn1cnc2c(NC3CC3)ncnc21
Outgoing: inactive

====

tested on: HCT-15
Can you tell me GI50 for the items I'm about to list?

Sample records with GI50:
Cc1cc(=O)oc2cc(SC(=O)N(C)C)ccc12 | > 100 µM
CCOC(=O)C12C(=O)CCN1CCc1ccccc1C2C (stereo unspecified) | > 100 µM
CCOC(=O)C(NC(=O)CC)(Nc1ccc(S(=O)(=O)Nc2ncccn2)cc1)C(F)(F)F (stereo unspecified) | > 100 µM
C=C(CN(C)C)C(=O)c1ccc(OC2OC(COC(C)=O)C(OC(C)=O)C(OC(C)=O)C2OC(C)=O)cc1 (stereo unspecified) | 3.03 µM
O=C1Nc2ccc(Br)cc2/C1=N/N1C(=O)C(=O)N(C2CCCCC2)C1=S | 2.42 µM
O=C(Cn1c(=O)oc2ccccc21)N(c1ccccc1)c1ccccc1 | > 100 µM

// each listed compound needs a value for GI50
1. Cc1ccc(C)c2c1CCc1cc3ccccc3nc1-2
2. CC[C@@]1(O)C(=O)OCc2c1cc1n(c2=O)Cc2c-1nc1ccccc1c2/C=N/NC(=O)c1ccc(N)cc1
3. COC[C@@H](/N=C/c1ccc([N+](=O)[O-])cc1)C(C)C
4. O=c1c2ccccc2n2cnc3ccc(NCCNCCO)c1c32
5. C/C=C(\C)C(=O)OC1C2C(C)C(=O)OC2C(O)C(C)C2C=CC(=O)C21C (stereo unspecified)
6. c1ccc(CN2CCC(CNc3ncnc4ccccc34)C2)cc1 (stereo unspecified)
7. COC(=O)C1=C(C)NC(C)=C(C(=O)OC)C1c1nc2sccn2c1[N+](=O)[O-]

Outgoing:
1. > 100 µM
2. 2.95 µM
3. > 100 µM
4. 3.18 µM
5. 10.6 µM
6. > 100 µM
7. > 100 µM

====

tested on: NCI-H460; experiment: NCI tumour cell line growth inhibition, 48 h
Calls of active or inactive are those of the source. Rule as the data show it: active = GI50 up to about 1.1 µM and inactive = higher.
Outcome field: choose from t (active), f (inactive)

COc1ccc(/C=C/[N+](=O)[O-])cc1 | f
CC(=O)OC1C(O)C(C)OC(OC(=O)C2CCC3C(C2)OC2(CC(OC(=O)/C=C/c4ccccc4)C(C)CO2)C32CO2)C1OC1OC(C)C(O)C(O)C1O (stereo unspecified) | t
COc1ccc(OC)c(N(CN2C(=O)CCC2C(=O)O)C(C)=O)c1 (stereo unspecified) | f

Incoming: Field: outcome | Entry: Cc1c(C)c2c(c(N)c1C#N)C(=O)N(N)C2=O
Outgoing: f

Incoming: Field: outcome | Entry: C=CCn1c(=O)c(C(=O)Nc2nc(C34CC5CC(CC(C5)C3)C4)cs2)c(O)c2ccccc21
Outgoing: f

Incoming: Field: outcome | Entry: COc1cccc2[nH]c(-c3ccccn3)nc12
Outgoing: f

====

tested on: TK-10; assay: NCI tumour cell line growth inhibition, 48 h
Calls of active or inactive are those of the source. Rule as the data show it: active = GI50 up to about 1.1 µM and inactive = higher.
Can you tell me GI50 for the items I'm about to list?

COc1ccc(/N=c2/[nH]c(N)c(C(=O)c3ccc(OC)cc3)s2)cc1 | 15.1 µM (inactive)
O=C1CSC(=S)N1c1ccc(F)cc1F | 94.4 µM (inactive)
O=Cc1cn(S(=O)(=O)c2ccccc2)c2ccccc12 | > 100 µM (inactive)
CC(=O)O[C@@H]1CN(S(=O)(=O)c2ccc(C)cc2)C[C@@H]1C1CCCCC1 | 14.2 µM (inactive)
CC1(c2ccc(Cl)cc2)CC(c2ccc(Cl)cc2)=C(C#N)C(=C(C#N)C#N)N1 (configuration not stated) | 17.8 µM (inactive)

// each listed compound needs a value for GI50
1. CC(NC1=NCCO1)c1cccs1 (configuration not stated)
2. CC[P+](C)(Cc1ccccc1)c1ccccc1.O=C(OC(C(=O)[O-])C(OC(=O)c1ccccc1)C(=O)O)c1ccccc1 (configuration not stated)
3. COC(OC)(c1ccccc1)C(I)I

Outgoing:
1. > 100 µM (inactive)
2. > 100 µM (inactive)
3. 13.3 µM (inactive)

// each listed compound needs a value for GI50
1. CCOC(=O)C(C#N)C1=CC(=O)C(=O)c2ccc(O)cc21 (configuration not stated)
2. FC1(F)SC2CCCCCCCCCCC2C1(F)F (configuration not stated)
3. Cc1cc2nn(C3CCCO3)nc2cc1C (configuration not stated)
4. O=c1c2ccccc2n2cnc3ccc(NCCNCCO)c1c32
5. COc1ccccc1N1C(=O)CSC1c1c[nH]c2ccccc12 (configuration not stated)

Outgoing:
1: > 100 µM (inactive); 2: 56.2 µM (inactive); 3: > 100 µM (inactive); 4: 2.92 µM (inactive); 5: > 100 µM (inactive)

// each listed compound needs a value for GI50
1. COc1ccc(CCNC(=O)Cc2ccccc2CO)cc1OC
2. O=C1/C(=C\c2cccc(Oc3ccccc3)c2)SC(c2ccccc2)N1c1ccccc1 (configuration not stated)
3. c1ccc(/N=C(\N2CCCC2)N(CCN2CCCC2)c2ccccc2)cc1
4. O=[N+]([O-])c1cn[n+]([O-])c2ccccc12

Outgoing:
1. > 100 µM (inactive)
2. > 100 µM (inactive)
3. 30.8 µM (inactive)
4. 12.9 µM (inactive)
